# testDetails: qHTS Screen for Compounds that Selectively Target Cancer Cells with p53 Mutations: Cytotoxicity of p53ts Cells at the Nonpermissive Temperature; also: nearly all actives have a fitted effect of over 55% in size
# recordedConditions: H1299-p53A138V viability at 39C, ATP luminescence, 24 h; series mostly up to 46.1 µM
About 1,900 (1.5%) of roughly 130,000 compounds were called active. Inconclusive results (about 5%) are left out. Calls follow the shape of the dose curve; as a rule, active = well fitted cell-killing curve with a large enough effect; inconclusive = small, poorly fitted or top-dose-only effect; inactive = no such curve, though single readings can be large or run the other way. This excerpt belongs to a sample that is enriched for actives.
Just give me one of these, please: Y (active), N (inactive)

Some solved entries appear below for comparison.
| compound | qualitativeLabel |
| --- | --- |
| CNC(=O)CN1C(=O)c2cccnc2Sc2ccccc21 | N |
| CCCS(=O)(=O)c1c(Nc2ccccc2C)sc(C(=O)c2ccccc2)c1N | N |
| CCOc1ccc(NC(=O)CN(Cc2ccccc2)S(=O)(=O)c2ccc(Cl)cc2)cc1 | N |
| CCOc1ccccc1CNCc1c(C(=O)O)c(C)n(Cc2ccc(C)cc2)c1C | N |
| CCOC(=O)Cc1ccc(NC(=O)Nc2c[nH]c(=O)[nH]c2=O)cc1 | N |

stdin: For "O=C(Nc1c2c(nc3ccccc13)CCCC2)c1ccccc1Br" , what call appears in the results of this test?
stdout: N

stdin: Call for entry CCC1(C)CC(=O)c2c(ccc3oc(C(=O)Nc4ccc(C(C)=O)cc4)c(C)c23)O1 (stereo not drawn) :
stdout: N

stdin: Can you look up the reported call for "O=C(c1ccc2c(c1)N(Cc1ccccc1)C(=O)c1ccccc1S2(=O)=O)N1CCCC1" for me?
stdout: N

stdin: Entry "CCc1ccc(-n2nnc(-c3nc(-c4ccccc4)no3)c2C)cc1" : call = ?
stdout: N

stdin: # fetch the recorded call for CC1(C)CC(=O)c2cc(OCC(=O)NCC3CCCO3)ccc2O1 (stereo not drawn) here
stdout: N

stdin: What is the recorded call for this compound in the test? "CCCCNc1ccc(-c2nc(-c3ccncc3)no2)cc1[N+](=O)[O-]"
stdout: N

stdin: Recorded test outcome, item "Cc1c(C(=O)NCc2ccccc2Br)oc2ccc3c(c12)C(=O)CC(C)(C)O3"
stdout: Y

stdin: Status in this test for COC(=O)c1ccc2c(=O)n(CC3CCCO3)c(=S)[nH]c2c1 (stereo not drawn) ?
stdout: N

stdin: # lookup: test call for "COc1ccccc1Nc1c2c(nc3ccc(NC(=O)/C=C/c4cc(OC)c(OC)c(OC)c4)cc13)CCCC2"
stdout: Y

###

# testDetails: qHTS Screen for Compounds that Selectively Target Cancer Cells with p53 Mutations: Cytotoxicity of p53ts Cells at the Nonpermissive Temperature; also: nearly all actives have a fitted effect of over 55% in size
# recordedConditions: H1299-p53A138V viability at 39C, ATP luminescence, 24 h; series mostly up to 46.1 µM
The whole screen tested about 130,000 compounds, of which about 1,900 (1.5%) were called active. About 5% were inconclusive and are not listed. The call rests on the fitted dose curve; in most records, active means well fitted cell-killing curve with a large enough effect; inconclusive means small, poorly fitted or top-dose-only effect; inactive means no such curve, though single readings can be large or run the other way. The sample holds actives, similar compounds and a random draw of the others, so the mix is not that of the screen.
Write down the outcome that applies. Available outcomes: YES = active, NO = inactive

Here's what some known entries look like.
| compound | qualitativeLabel |
| --- | --- |
| CSc1oc(-c2cccs2)nc1S(=O)(=O)c1ccc(Br)cc1 | NO |
| Cc1ccc(C)c2sc(NC(=O)c3ccc(S(=O)(=O)N4CCCC4)cc3)nc12 | NO |
| CCC1CCCCN1S(=O)(=O)c1ccc(NC(=O)c2cc(=O)c3ccccc3o2)cc1 (stereo not given) | NO |
| CCOC(=O)C1CCN(c2csc3ccc(C)cc3c2=O)CC1 | NO |

stdin: Write down the call the test reported for this compound. Item: "Cc1ccc(N2CCN(C(=O)CCc3c(C)nc4c(c3C)c(=O)n(C)c(=O)n4C)CC2)c(C)c1"
stdout: NO

stdin: Recorded call for "CC(C)c1ccc(NC(=O)c2ccc3c(O)c(S(=O)(=O)c4ccccc4)c(=O)[nH]c3c2)cc1" ?
stdout: YES

stdin: Tell me the recorded outcome of this test for "Cc1ccc(C)c(N2CCN(CCCNC(=O)Nc3ccc(Cl)cc3)CC2)c1" .
stdout: YES

stdin: Name the outcome recorded for "COc1ccccc1C(=O)Nc1c(C(=O)N(C)Cc2ccccc2)sc2nc(C)c(Cl)c(C)c12" in the assay.
stdout: NO

stdin: Hey, what did the test say about "CC1=C(c2ccc(C)cc2)S(=O)(=O)NC1=NCCCN1CCN(c2cc(C)ccc2C)CC1" ?
stdout: NO

stdin: Which outcome was assigned to "O=S(=O)(c1ccc(C2CCCCC2)cc1)N1CCN(c2ccc(Cl)c(Cl)c2)CC1" in this test?
stdout: NO

stdin: Assay outcome for Cc1ccc(CNC(=O)c2ccc(CS(=O)Cc3cccc(Cl)c3)o2)cc1 (stereo not given) : what was it?
stdout: NO

stdin: Each compound tested received a call. Report the one for "CCOC(=O)c1ccccc1NS(=O)(=O)c1ccc(OC)cc1" .
stdout: NO

stdin: Test call for this compound, please: CCOC(=O)c1cccc(NC(=O)C(Cc2ccccc2)NS(=O)(=O)c2cccc3nsnc23)c1 (stereo not given)
stdout: NO

stdin: Fill in: this test's call for "COc1cccc(-n2cc(C(=O)NCc3cccc(Cl)c3)c3ccccc3c2=O)c1" is ___
stdout: NO
